Biological target: CCR1 (Homo sapiens, UniProt P32246)
Sequence (P32246 1-355): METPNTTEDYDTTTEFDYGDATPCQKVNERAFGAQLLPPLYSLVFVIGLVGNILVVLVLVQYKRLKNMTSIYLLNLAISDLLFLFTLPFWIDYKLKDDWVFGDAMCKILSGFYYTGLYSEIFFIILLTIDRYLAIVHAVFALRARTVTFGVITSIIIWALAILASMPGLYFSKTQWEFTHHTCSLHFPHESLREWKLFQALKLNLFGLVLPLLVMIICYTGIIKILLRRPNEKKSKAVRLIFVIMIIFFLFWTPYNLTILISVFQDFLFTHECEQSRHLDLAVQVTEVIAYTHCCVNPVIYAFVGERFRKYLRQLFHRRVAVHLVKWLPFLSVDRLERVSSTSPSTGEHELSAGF
Assay: Method A: calcium flux in CCR1 transfected cells (Fluo-4 NW, FLIPR TETRA), block of the CCR1/MIP-1α interaction
Format: cell-based
Settings: Method A: Fluo-4 NW, MIP-1 alpha at EC80
MEASUREMENT_TYPE: IC50 (nM)

These recorded examples may help you get a feel for the data.
• COc1cc(S(C)(=O)=O)ccc1CNC(=O)c1cncc2c1cnn2-c1ccc(F)cc1 = 10
• CCC[C@H](NC(=O)c1cncc2c1cnn2-c1ccc(F)cc1)c1cncc(S(C)(=O)=O)c1 = 0.3
• NS(=O)(=O)c1cc(CNC(=O)c2cncc3c2cnn3-c2ccc(F)cc2)ccn1 = 13

I: COCCN(c1ccc(CNC(=O)c2cncc3c2cnn3-c2ccc(Cl)cc2)cn1)S(C)(=O)=O
II: CS(=O)(=O)c1ccc(CNC(=O)c2cncc3c2cnn3-c2ccc(F)cc2)cc1O
I would appreciate it if you could say which entry, I or II , has the lower IC50 value. Lab log: write the label of the selected item as the result.
I
(I: 5 nM, II: 24 nM)

a: O=C1CN(S(=O)(=O)c2ccc(CNC(=O)c3cncc4c3cnn4-c3ccc(F)cc3)cc2)CCN1
b: O=C(NCc1ccc(S(=O)(=O)N2CCC(O)C2)cc1)c1cncc2c1cnn2-c1ccc(Cl)cc1 (stereo not shown)
Hi, I'm comparing a with b and wondering which one has the bigger number for IC50. Any idea? Returns: label corresponding to the selected item.
a

I: CC[C@H](NC(=O)c1cncc2c1cnn2-c1ccc(F)cc1)c1cncc(S(=O)(=O)CCC(=O)O)c1
II: CCC[C@H](NC(=O)c1cncc2c1cnn2-c1ccc(F)cc1)c1cncc(S(=O)(=O)O)c1
III: O=C(NCc1ccc(S(=O)(=O)N2CCOCC2)nc1)c1cncc2c1cnn2-c1ccc(F)cc1
Sort (3 compounds) by IC50: min first. Response field: labels, in requested order.
II, III, I

###

Target: CCR1 (Homo sapiens, UniProt P32246)
Experiment: Method B: calcium flux in CCR1 transfected cells (Calcium 4 dye, […] FDSS6000), block of the CCR1/MIP-1α interaction
Format: cell-based
Details: Method B: Calcium 4 dye, MIP-1alpha at EC80
MEASUREMENT_TYPE: IC50 (nM)

Example compounds with recorded IC50:
• CCC(NC(=O)c1cncc2c1cnn2-c1ccc(F)cc1)c1nc(C(=O)NCC#N)co1 (stereo not drawn) = 25
• CC[C@H](NC(=O)c1cncc2c1cnn2-c1ccc(F)cc1)c1cc(S(C)(=O)=O)c[nH]1 = 1

a: CCC(NC(=O)c1cncc2c1cnn2-c1ccc(F)cc1)C1CCN(C(=O)OC(C)(C)C)CC1 (stereo not drawn)
b: CN(c1ncc(CNC(=O)c2cncc3c2cnn3-c2ccc(F)cc2)cn1)S(C)(=O)=O
Compare the recorded IC50 of a and b ; state which is larger. Respond using the label that marks the chosen record.
a
(a: 4 nM, b: 2 nM)
